- ASSAY_OVERVIEW: Tmax in ICR mouse at 10 mg/kg, po administered via gavage by LC-MS/MS analysis
- Format: ADME, organism-based
- EXPERIMENTAL_PARAMETERS: in vivo
PROPERTY_NAME: Tmax (min)
Number in min, nothing else.

Report Tmax for `Cc1cc(-c2ncc(CNC(=O)c3ccc4c(c3)[nH]c3ccccc34)cc2F)ccn1`
30

====

- ASSAY_OVERVIEW: Cmax in ICR mouse at 10 mg/kg, po administered via gavage by LC-MS/MS analysis
- Assay type: ADME, organism-based
- Parameters: dose 10 mg/kg, route oral
- EXPERIMENTAL_PARAMETERS: in vivo
PROPERTY_NAME: Cmax (ng/mL)
Number in ng/mL, nothing else.

Report Cmax for `Cc1cc(-c2ncc(CNC(=O)c3ccc4c(c3)[nH]c3ccccc34)cc2F)ccn1`
5140

====

- ASSAY_OVERVIEW: AUC (0 to 24 hrs) in ICR mouse at 2 mg/kg, iv by LC-MS/MS analysis
- Type: ADME, organism-based
- Parameters: dose 2 mg/kg, time < 24 hr, route intravenous
- EXPERIMENTAL_PARAMETERS: in vivo
PROPERTY_NAME: AUC(0-t) at 24 h (ng·h/mL)
Number in ng·h/mL, nothing else.

Report AUC(0-t) at 24 h for `Cc1cc(-c2ncc(CNC(=O)c3ccc4c(c3)[nH]c3ccccc34)cc2F)ccn1`
5460

====

- ASSAY_OVERVIEW: Clearance in ICR mouse at 2 mg/kg, iv by LC-MS/MS analysis
- Assay type: ADME, organism-based
- EXPERIMENTAL_PARAMETERS: in vivo
PROPERTY_NAME: clearance (mL/min/kg)
Number in mL/min/kg, nothing else.

Report clearance for `Cc1cc(-c2ncc(CNC(=O)c3ccc4c(c3)[nH]c3ccccc34)cc2F)ccn1`
6.1

====

- TARGET: Protein smoothened (Homo sapiens, UniProt Q99835)
- Sequence (Q99835 whole entry): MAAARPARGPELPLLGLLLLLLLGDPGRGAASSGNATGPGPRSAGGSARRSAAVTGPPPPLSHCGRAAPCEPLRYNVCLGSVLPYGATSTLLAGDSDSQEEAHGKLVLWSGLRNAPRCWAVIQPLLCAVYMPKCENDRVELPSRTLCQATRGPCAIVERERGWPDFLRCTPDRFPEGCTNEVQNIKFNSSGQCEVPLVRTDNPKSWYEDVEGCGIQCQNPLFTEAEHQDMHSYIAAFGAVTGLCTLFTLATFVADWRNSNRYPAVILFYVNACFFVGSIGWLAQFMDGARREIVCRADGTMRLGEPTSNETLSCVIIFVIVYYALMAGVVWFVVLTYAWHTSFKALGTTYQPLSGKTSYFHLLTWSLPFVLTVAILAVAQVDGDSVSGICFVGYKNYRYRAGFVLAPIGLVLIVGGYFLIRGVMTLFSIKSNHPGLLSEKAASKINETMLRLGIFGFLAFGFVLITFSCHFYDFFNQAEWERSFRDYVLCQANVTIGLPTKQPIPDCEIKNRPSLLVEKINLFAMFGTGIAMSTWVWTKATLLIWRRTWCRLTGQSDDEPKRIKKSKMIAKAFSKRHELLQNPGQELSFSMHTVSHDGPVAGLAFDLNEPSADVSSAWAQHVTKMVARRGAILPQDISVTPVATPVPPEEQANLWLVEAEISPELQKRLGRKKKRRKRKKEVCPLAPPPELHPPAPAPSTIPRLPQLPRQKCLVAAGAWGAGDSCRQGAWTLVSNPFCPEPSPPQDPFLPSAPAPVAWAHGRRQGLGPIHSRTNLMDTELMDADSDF
- ASSAY_OVERVIEW: Inhibition of Bodipy-cyclopamine binding to human Smo expressed in human U2OS cells after 2 hrs by high content fluorescence imaging analysis
pIC50: −log10 of the molar value.
PROPERTY_NAME: pIC50

Report pIC50 for `Cc1cc(-c2ncc(CNC(=O)c3ccc4c(c3)[nH]c3ccccc34)cc2F)ccn1`
< 5.00

====

// IC50 lookup, one value per entry
- TARGET: UniProtKB Q9JJJ7
- Sequence (Q9JJJ7 whole entry): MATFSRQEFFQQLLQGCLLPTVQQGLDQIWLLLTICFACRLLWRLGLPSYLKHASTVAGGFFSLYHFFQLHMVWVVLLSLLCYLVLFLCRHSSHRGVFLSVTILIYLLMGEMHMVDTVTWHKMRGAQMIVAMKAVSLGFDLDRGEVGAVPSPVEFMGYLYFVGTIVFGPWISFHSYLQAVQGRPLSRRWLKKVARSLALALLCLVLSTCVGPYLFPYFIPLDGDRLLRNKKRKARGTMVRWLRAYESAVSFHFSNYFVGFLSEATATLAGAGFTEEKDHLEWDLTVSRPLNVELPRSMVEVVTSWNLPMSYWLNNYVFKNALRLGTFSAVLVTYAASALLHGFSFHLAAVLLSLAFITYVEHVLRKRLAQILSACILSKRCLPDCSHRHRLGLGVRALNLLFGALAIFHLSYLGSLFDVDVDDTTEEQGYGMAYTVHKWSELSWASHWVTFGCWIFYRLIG
- ASSAY_OVERVIEW: Inhibition of porcupine in mouse L Wnt3A cells co-cultured with HEK293 cells assessed as suppression of Wnt signaling after 48 hrs by Super-top flash reporter gene assay
Express the reported value numerically, then name its unit.

The cases that follow already have their IC50 on record.
Report IC50 for `Cc1cc(-c2ncc(CNC(=O)c3ccc4c(c3)[nH]c3ccccc34)cc2C#N)ccn1`
0.72 nM

Report IC50 for `Cc1cc(-c2ncc(CNC(=O)c3ccc4c(c3)oc3ccccc34)cc2F)ccn1`
2.1 nM

Report IC50 for `Cc1cc(-c2ncc(CNC(=O)c3ccc4c(c3)Cc3ccccc3-4)cc2F)ccn1`
6.5 nM

Kindly review the next compound as well.
Report IC50 for `COc1cc(CNC(=O)c2ccc3c(c2)[nH]c2ccccc23)cnc1-c1ccnc(C)c1`
1.9 nM

Hello, the source for this data is ChEMBL document CHEMBL4196048, in case you need it.
